biological target: Cra (catabolite repressor/activator) (Escherichia coli, UniProt P0ACP1, R57K/A58G/G59Q/R60Q/S75H/D148I/R149I, form not given); construct: full-length, His6-tagged (tag encoded by the 3' primer, C-terminal), pET28a, expressed in E. coli BL21, Ni resin; experiment: isothermal titration calorimetry, one-site fit; conditions: 25 °C; 15 μM protein, 50 mM FBP injected; Tang1541 mutant
EXPERIMENTAL_ENDPOINT: pKd
Friendly reminder that pKd comes from taking -log10 of the concentration in mol/L.

Specify pKd for O=P(O)(O)OC[C@H]1OC(O)(COP(=O)(O)O)[C@@H](O)[C@@H]1O (stereo partly shown) [FBP, fructose-1,6-bisphosphate] and stop.
6.89

---

target: Cra (catabolite repressor/activator) (Escherichia coli, UniProt P0ACP1, R57K/A58T/G59N/R60Q/S75H/D148I/R149I, form not given); construct: full-length, His6-tagged (tag encoded by the 3' primer, C-terminal), pET28a, expressed in E. coli BL21, Ni resin; assay: isothermal titration calorimetry, one-site fit; settings: 25 °C; 15 μM protein, 50 mM FBP injected; Tang1544 mutant
EXPERIMENTAL_ENDPOINT: pKd
Just so you know, pKd here is -log10 of the concentration in molar units; reply with that number alone.

Give reported pKd value for O=P(O)(O)OC[C@H]1OC(O)(COP(=O)(O)O)[C@@H](O)[C@@H]1O (stereo partly shown) [FBP, fructose-1,6-bisphosphate]
7.02

Where do these numbers come from? They come from paper PMC5109907.
